Experiment: CCTE_Padilla_ZF_144hpf_TERATOSCORE: (Legacy) CCTE's 144 Hour Post-fertilization zebrafish Assay Teratoscore, Padilla Lab (AID 2283679)
Active and inactive are the calls of the source. The calls were made as follows: active = hit-call score of the fitted dose curve at least 0.9, where 1 is the maximum; inactive = score below 0.9.
Hi! Could you answer with just one of these? y (active), n (inactive)

O=C1C2CC=CCC2C(=O)N1SC(Cl)(Cl)Cl (configuration not stated); y

Now look at this one.
Prompt: Which outcome was entered for the compound CN/C(=N\[N+](=O)[O-])NCc1cnc(Cl)s1 in this test?
Completion: n

---

Read-out: Protein phosphatase 2A (PPP2R4), PTPA (gene 5524)
Assay: LTEA_HepaRG_PPP2R4: Life Technologies and Expression Analysis (LTEA) Assay for Protein phosphatase 2A (PPP2R4) using HepaRG (AID 2283522)
Details: mRNA level, 48 h; actives raise or lower the signal
Active and inactive are the calls of the source. How the source made its calls: active means hit-call score of the fitted dose curve at least 0.9, where 1 is the maximum; inactive means score below 0.9.
Hi! Could you answer with just one of these? active, inactive

CCOc1nc(F)cc2nc(S(=O)(=O)Nc3c(Cl)cccc3Cl)nn12; inactive
CC(C)N1C(=O)c2ccccc2NS1(=O)=O; inactive
CN/C(=N\[N+](=O)[O-])NCc1cnc(Cl)s1; inactive
CCNP(=S)(OC)O/C(C)=C/C(=O)OC(C)C (stereo unspecified); inactive
Cc1cnc(C2=NC(C)(C(C)C)C(=O)N2)c(C(=O)O)c1 (stereo unspecified); inactive
CCCN(CC)CC1COC2(CCC(C(C)(C)C)CC2)O1 (stereo unspecified); inactive

Prompt: Which outcome was entered for the molecule CC(C)=CC1C(C(=O)OCc2coc(Cc3ccccc3)c2)C1(C)C (stereo unspecified) in this test?
Completion: inactive

Prompt: Which outcome was entered for the molecule CC1(C)C(C(=O)OC(C#N)c2cccc(Oc3ccccc3)c2)C1(C)C (stereo unspecified) in this test?
Completion: inactive

Prompt: Which outcome was entered for the molecule COCC(C)N(C(=O)CCl)c1c(C)csc1C (stereo unspecified) in this test?
Completion: inactive

Prompt: Which outcome was entered for the molecule CC(C)Oc1cccc(NC(=O)c2ccccc2C(F)(F)F)c1 in this test?
Completion: inactive

Prompt: Which outcome was entered for the molecule O=C(O)c1c(Cl)ccc2cc(Cl)cnc12 in this test?
Completion: inactive

Prompt: Which outcome was entered for the molecule O=c1n(Cl)c(=O)n(Cl)c(=O)n1Cl in this test?
Completion: inactive

Prompt: Which outcome was entered for the molecule CCN(CC)c1nc(C)cc(OP(=S)(OC)OC)n1 in this test?
Completion: inactive

---

Read-out: Insulin-like growth factor-binding protein 1 (IGFBP1), IGFBP1 (gene 3484)
Test: LTEA_HepaRG_IGFBP1: Life Technologies and Expression Analysis (LTEA) Assay for Insulin-like growth factor-binding protein 1 (IGFBP1) using HepaRG (AID 2283508)
Details: mRNA level, 48 h; actives raise or lower the signal
Calls of active or inactive are those of the source. The calls were made as follows: active = hit-call score of the fitted dose curve at least 0.9, where 1 is the maximum; inactive = score below 0.9.
Hi! Could you answer with just one of these? active, inactive

OC(c1ccc(Cl)cc1)(c1ccc(Cl)cc1)C(Cl)(Cl)Cl; active
CCN(CC)C(=O)C(C)Oc1cccc2ccccc12 (configuration not stated); inactive
CNC(=O)N(C)c1nnc(C(C)(C)C)s1; inactive

Prompt: Which outcome was entered for the compound CC(C)N1C(=O)N(c2ccccc2)CSC1=NC(C)(C)C in this test?
Completion: active

Prompt: Which outcome was entered for the compound CC(C)Nc1nc(Cl)nc(NC(C)C)n1 in this test?
Completion: inactive

Prompt: Which outcome was entered for the compound CN/C(=N\[N+](=O)[O-])NCc1cnc(Cl)s1 in this test?
Completion: inactive

---

Read-out: Matrix Metallopeptidase 9 (MMP9), MMP9 (gene 4318)
Test: BSK_KF3CT_MMP9: BioMAP Diversity Plus: KF3CT Assay for Matrix Metallopeptidase 9 (MMP9) Biomarker Activity (AID 2283074)
Settings: primary human keratinocytes with fibroblasts; actives raise or lower the signal
Active and inactive are the calls of the source. The calls were made as follows: active = hit-call score of the fitted dose curve at least 0.9, where 1 is the maximum; inactive = score below 0.9.
reported.endpoint: outcome

Clc1cccc(C(Cl)(Cl)Cl)n1; inactive
CC(C)NC(=O)N1CC(=O)N(c2cc(Cl)cc(Cl)c2)C1=O; inactive
COCC(C)N(C(=O)CCl)c1c(C)csc1C (configuration not stated); inactive
Nc1cnn(-c2ccccc2)c(=O)c1Cl; inactive
COC(=O)c1c(C(F)F)nc(C(F)(F)F)c(C2=NCCS2)c1CC(C)C; inactive

# map each compound to its outcome
1. CCOP(=S)(OCC)Oc1nc(Cl)n(C(C)C)n1
2. CC1(C)CON(Cc2ccccc2Cl)C1=O

Completion:
["inactive", "inactive"]

---

Tested on: TTR (gene 7276)
Assay: CCTE_GLTED_hTTR_0.125uM: CCTE's human Transthyretin (hTTR) Inhibition Assay, with 0.125uM TTR, Great Lakes Toxicology and Ecology Division (GLTED) Lab (AID 2284431);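 also: hits lower the fluorescence signal relative to DMSO baseline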
Calls of active or inactive are those of the source. Rule for the calls: active = hit-call score of the fitted dose curve at least 0.9, where 1 is the maximum; inactive = score below 0.9.
reported.endpoint: AC50

Illustrative cases are given below, each with its answer.
CCOc1nc(C(Cl)(Cl)Cl)ns1; 5.26 µM (active)
COP(=S)(OC)Oc1ccc([N+](=O)[O-])c(C)c1; 8.85 µM (active)

# map each molecule to its AC50
1. Cn1c(-c2ccccc2)cc(-c2ccccc2)[n+]1C
2. N#Cc1c[nH]cc1-c1cccc2c1OC(F)(F)O2
3. O=C1C2CC=CCC2C(=O)N1SC(Cl)(Cl)Cl (stereo not given)

Completion:
1. 27.8 µM (active)
2. 0.5 µM (active)
3. 21.1 µM (active)

---

Target: Cellular tumor antigen p53 (Homo sapiens) (UniProt P04637)
Sequence (P04637 whole entry, looked up): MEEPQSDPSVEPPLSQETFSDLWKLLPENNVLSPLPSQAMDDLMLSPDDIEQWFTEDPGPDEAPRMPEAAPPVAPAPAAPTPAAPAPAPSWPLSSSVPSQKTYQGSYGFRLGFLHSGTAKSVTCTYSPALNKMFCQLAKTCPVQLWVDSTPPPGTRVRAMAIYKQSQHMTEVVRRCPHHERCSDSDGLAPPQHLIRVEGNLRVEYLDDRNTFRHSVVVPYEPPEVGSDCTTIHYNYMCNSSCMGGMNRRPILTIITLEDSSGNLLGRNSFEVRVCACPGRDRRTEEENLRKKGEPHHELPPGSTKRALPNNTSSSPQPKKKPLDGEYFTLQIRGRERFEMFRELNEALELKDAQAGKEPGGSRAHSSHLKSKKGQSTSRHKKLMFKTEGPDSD
Test: TOX21_p53_BLA_p4_ratio: Tox21 HCT-116 p53 Agonism Beta-lactamase Assay, Ratio, Phase 4 (AID 2283601)
Inconclusive results are not listed. The source made the active and inactive calls. The calls were made as follows: active = hit-call score of the fitted dose curve at least 0.9, where 1 is the maximum; inconclusive = response in the unintended direction; inactive = score below 0.9.
Hi! Could you answer with just one of these? active, inactive

Example entries and their recorded answers appear below.
CN/C(=N\[N+](=O)[O-])NCc1cnc(Cl)s1; inactive
CC1(C)C(C(=O)OC(C#N)c2cccc(Oc3ccccc3)c2)C1(C)C (stereo not drawn); inactive
COc1cc(OC)nc(NC(=O)NS(=O)(=O)c2ncccc2OCC(F)(F)F)n1; inactive
CNC(=O)Oc1cccc2ccccc12; inactive
Clc1nc(Cl)nc(Nc2ccccc2Cl)n1; inactive

Prompt: Which outcome was entered for the molecule Cc1ccc(N=CN(C)C=Nc2ccc(C)cc2C)c(C)c1 in this test?
Completion: inactive

Prompt: Which outcome was entered for the molecule CC(C)N1C(=O)c2ccccc2NS1(=O)=O in this test?
Completion: inactive

Prompt: Which outcome was entered for the molecule Cc1c(COC(=O)[C@@H]2[C@H](/C=C(\Cl)C(F)(F)F)C2(C)C)cccc1-c1ccccc1 in this test?
Completion: inactive

Prompt: Which outcome was entered for the molecule CC(C)C1(C)N=C(c2ncccc2C(=O)O)NC1=O (stereo not drawn) in this test?
Completion: inactive

---

Read-out: Glutathione S-Transferase (GSTA2), GSTA2 (gene 2939)
Assay: LTEA_HepaRG_GSTA2: Life Technologies and Expression Analysis (LTEA) Assay for Glutathione S-Transferase (GSTA2) using HepaRG (AID 2283497)
Settings: mRNA level, 48 h; actives raise or lower the signal
The source made the active and inactive calls. The calls were made as follows: active = hit-call score of the fitted dose curve at least 0.9, where 1 is the maximum; inactive = score below 0.9.
Hi! Could you answer with just one of these? active, inactive

Example entries and their recorded answers appear below.
COC(=O)N(C(=O)N1CO[C@@]2(C(=O)OC)Cc3cc(Cl)ccc3C2=N1)c1ccc(OC(F)(F)F)cc1; active
Clc1cccc(C(Cl)(Cl)Cl)n1; inactive
N#Cc1c[nH]cc1-c1cccc2c1OC(F)(F)O2; active
CO/N=C(/C1=NOCCO1)c1ccccc1Oc1ncnc(Oc2ccccc2Cl)c1F; active
CSC(=O)c1c(C(F)F)nc(C(F)(F)F)c(C(=O)SC)c1CC(C)C; active

Now look at this one.
Prompt: Which outcome was entered for the molecule Nc1cnn(-c2ccccc2)c(=O)c1Cl in this test?
Completion: inactive

---

Biological target: Retinoic acid receptor RXR-alpha (Homo sapiens) (UniProt P19793)
Sequence (P19793 whole entry, looked up): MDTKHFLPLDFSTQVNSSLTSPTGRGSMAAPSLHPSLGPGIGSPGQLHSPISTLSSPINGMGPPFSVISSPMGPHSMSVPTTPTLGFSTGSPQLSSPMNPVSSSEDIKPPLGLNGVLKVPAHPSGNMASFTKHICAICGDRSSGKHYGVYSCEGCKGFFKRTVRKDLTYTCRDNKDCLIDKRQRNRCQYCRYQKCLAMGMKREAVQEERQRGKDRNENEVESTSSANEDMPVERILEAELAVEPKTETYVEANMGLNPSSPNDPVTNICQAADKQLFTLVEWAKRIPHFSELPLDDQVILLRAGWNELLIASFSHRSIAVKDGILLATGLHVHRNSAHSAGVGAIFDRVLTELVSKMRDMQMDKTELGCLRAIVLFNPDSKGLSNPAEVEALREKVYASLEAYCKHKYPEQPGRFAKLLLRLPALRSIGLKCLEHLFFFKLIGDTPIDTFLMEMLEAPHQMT
Assay: OT_NURR1_NURR1RXRa_1440: Odyssey Thera (OT) 24-hour HEK293T Protein Complementation Assay for Nurr1/retinoid X receptor (RXR) (AID 2283386)
Inconclusive results are not listed. Activity calls are given as the source filed them. The calls were made as follows: active = hit-call score of the fitted dose curve at least 0.9, where 1 is the maximum; inconclusive = response in the unintended direction; inactive = score below 0.9.
Hi! Could you answer with just one of these? T for active, F for inactive

Cc1c(COC(=O)[C@@H]2[C@H](/C=C(\Cl)C(F)(F)F)C2(C)C)cccc1-c1ccccc1; F

Prompt: Which outcome was entered for the compound CCN(CC)C(=O)C(C)Oc1cccc2ccccc12 (configuration not stated) in this test?
Completion: F

Prompt: Which outcome was entered for the compound CC1(C)CON(Cc2ccccc2Cl)C1=O in this test?
Completion: F

Prompt: Which outcome was entered for the compound CC(C)=CC1C(C(=O)OCc2coc(Cc3ccccc3)c2)C1(C)C (configuration not stated) in this test?
Completion: T

Prompt: Which outcome was entered for the compound Cc1nc(N(C)C)nc(OC(=O)N(C)C)c1C in this test?
Completion: F

Prompt: Which outcome was entered for the compound COC(=O)NC(=S)Nc1ccccc1NC(=S)NC(=O)OC in this test?
Completion: F

The reported numbers originate from PubChem BioAssay (EPA / NIEHS).
